Listing of IC50 toward Tyrosine-protein kinase JAK2 (Homo sapiens), each taken from a published source.

Cc1cccc(Cl)c1NC(=O)N1CCC(N2CC(CC#N)(n3cc(-c4ncnc5[nH]ccc45)cn3)C2)CC1 | 10 to 50 nM
CN(C)C(=O)c1ccc(Nc2nccc(-c3cnn(C(CC#N)CC4CCN(C(=O)c5ccc(F)cc5F)CC4)c3)n2)cc1 (racemic) | < 100 nM
N#CCC1(n2cc(-c3ncnc4[nH]ccc34)cn2)CN(C2CCN(C(=O)Nc3ccc(F)cc3Cl)CC2)C1 | 10 to 50 nM
C[C@H](O)C(=O)N1CC[C@H](Oc2ccc(-c3ncnc(Nc4ccc(C(C)(C)O)nc4)n3)cc2C#N)[C@H](F)C1 | ≥ 1000 nM
O=S(=O)(c1cccc2cccnc12)n1ccc2cnc(Nc3ccc(N4CCN(CCO)CC4)cc3)nc21 | < 20 nM
N#Cc1cc(OC[C@H]2CCN(C(=O)CO)C2)cc(-c2ncnc(Nc3ccc(N4CCN(C5COC5)CC4)cc3)n2)c1 | 658 nM

Please turn your attention to the following entry.
### Prompt Input N#CCC(=O)N1CCC[C@@H](Nc2c(-c3ncon3)cnc3[nH]ccc23)C1 , output reported IC50.
### Response 10 to 100 nM
